biological target: T1, Human CD137 ECD (human); assay: single mutant vs template dBBDu183H
T1 construct: also called 4-1BB
T1 sequence (chain, as listed by the source limits assumed): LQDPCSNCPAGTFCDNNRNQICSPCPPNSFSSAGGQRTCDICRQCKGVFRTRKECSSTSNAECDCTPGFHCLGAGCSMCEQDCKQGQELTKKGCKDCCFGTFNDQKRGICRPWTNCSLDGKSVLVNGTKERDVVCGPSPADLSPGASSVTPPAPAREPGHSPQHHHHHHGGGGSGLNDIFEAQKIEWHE
In this section, each of the binders is paired with its reported fold change of affinity.
Field: value (include unit after the number)

(Q) Tell me its fold change of affinity given H183/L072 VH T28M (antibody, name in Kabat numbering, V domains shown) VH: QVQLVESGGGLVQPGRSLRLSCAASGFMFSNAWMHWVRQAPGKGLEWVAQIKDKGNAYAAYYAPSVKGRFTISRDDSKNSIYLQMNSLKTEDTAVYYCHYVHYASASTVLPAFGVDAWGQGTTVTVSS VL: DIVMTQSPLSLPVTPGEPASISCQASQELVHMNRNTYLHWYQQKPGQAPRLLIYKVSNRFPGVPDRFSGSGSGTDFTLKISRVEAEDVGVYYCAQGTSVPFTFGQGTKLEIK as the entry.
(A) 0.7 fold
